Biological target: Recombinant human HSD17B13 (Homo sapiens (Human))
Sequence (Q7Z5P4 20-300): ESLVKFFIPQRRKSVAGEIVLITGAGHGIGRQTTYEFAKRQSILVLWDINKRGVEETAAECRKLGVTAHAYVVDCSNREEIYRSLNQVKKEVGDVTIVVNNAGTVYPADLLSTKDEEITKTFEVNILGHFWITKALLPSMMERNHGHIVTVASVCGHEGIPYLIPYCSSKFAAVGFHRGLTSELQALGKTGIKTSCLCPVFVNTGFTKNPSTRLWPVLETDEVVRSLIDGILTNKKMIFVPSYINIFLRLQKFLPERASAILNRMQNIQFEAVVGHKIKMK
Experiment: HSD17B13 rapid-fire mass spectrometry assay (RF/MS assay)
Conditions: inhibition of HSD17B13; LTB4 10 μM, NAD+ 0.5 mM, RT 3 h; IC50 ranges A-E
Experimental: HSD17B13 rapid-fire mass spectrometry assay (RF/MS assay). Recombinant human HSD17B13 was expressed and purified from sf9 cells at Charles River Labs (Saffron Walden, UK). […] Leukotriene B4 (335.3) and 12-oxoLeukotriene B4 (333.3) SRM transitions were optimized with Discovery Quant software and extracted ion counts for these analytes were determined. […] By using above method, the inhibition of HSD17B13 was evaluated for the compounds of Formula (I). […]
endpoint name: IC50

Some molecules with known IC50 results, for comparison:
CCC[C@H]1CC[C@H](C2CC=C(c3nc(S(=O)(=O)Nc4cc(F)c(C(=O)O)cc4OC)cs3)CC2)CC1 (some centres unmarked)	100 to 500 nM
O=C(O)c1ccc(NS(=O)(=O)c2cnc(-c3ccc(F)cc3)s2)s1	1000 to 100000 nM
COc1cc(C(=O)O)c(F)cc1NS(=O)(=O)c1cnc(-c2ccc(C3=CCC(C)(C)CC3)cc2)s1	< 100 nM
COc1cc(C(=O)O)ccc1NS(=O)(=O)c1csc(C2CCC(c3ccccc3)CC2)n1 (single isomer, unassigned)	100 to 500 nM
COc1cc(C(=O)O)ccc1NS(=O)(=O)c1csc(N2CCC(Cc3ccccc3)CC2)n1	1000 to 100000 nM

List the reported IC50 of each molecule below.
1. COc1c(NS(=O)(=O)c2cnc(-c3ccc(F)cc3)s2)ccc(C(=O)O)c1F
2. COC/C=C/c1ccc(-c2ncc(S(=O)(=O)Nc3ccc(C(=O)O)cc3OC)s2)cc1

## Result
1: 100 to 500 nM; 2: 100 to 500 nM

List the reported IC50 of each molecule below.
1. COc1cc(C(=O)O)ccc1NS(=O)(=O)Nc1ccc(C(=O)O)cc1OC
2. COc1cc(C(=O)O)ccc1NS(=O)(=O)c1csc(-c2ccc(F)c3ccccc23)n1

## Result
1: 1000 to 100000 nM; 2: 1000 to 100000 nM

List the reported IC50 of each molecule below.
1. COc1cc(C(=O)O)c(F)cc1NS(=O)(=O)c1cnc(-c2ccc(C3=CCC(C(C)(C)C)CC3)cc2)s1 (centres unmarked)
2. COc1cc(C(=O)O)c(F)cc1NS(=O)(=O)c1ccc2nc(-c3ccc([C@H]4CC[C@H](C(F)(F)F)CC4)cc3)sc2c1
3. COc1cc(C(=O)O)ccc1NS(=O)(=O)c1csc(C#Cc2ccc(C(=O)O)c(OC(F)(F)F)c2)n1
4. CCC[C@H]1CC[C@H](C2CC=C(c3nc(S(=O)(=O)Nc4ccc(C(=O)O)cc4OC)cs3)CC2)CC1 (some centres unmarked) [Example 379]
5. COc1cc(C(=O)O)c(F)cc1NS(=O)(=O)c1csc(-c2ccc(C3CC4C(C3)C4(C)C)cc2)n1 (centres unmarked)
6. O=C(O)c1ccc(NS(=O)(=O)c2cnc(-c3ccc(F)cc3)s2)cn1
7. COc1cc(C(=O)O)c(F)cc1NS(=O)(=O)c1csc(-c2ccc(C3=CCC(C)(C)CC3)c(C)c2)n1
8. COc1cc(C(=O)O)c(F)cc1NS(=O)(=O)c1csc(-c2ccc([C@H]3CC[C@H](C(C)(C)C)CC3)cc2C(F)(F)F)n1

## Result
< 100 nM
500 to 1000 nM
1000 to 100000 nM
100 to 500 nM
< 100 nM
1000 to 100000 nM
100 to 500 nM
< 100 nM

Attribution: patent US12384753B2
